- system-under-test: recombinant purified human IL-12 p70 (human) (UniProt P29459)
- Sequence (chain, as listed by the source, form in doubt, chain 1 of 2): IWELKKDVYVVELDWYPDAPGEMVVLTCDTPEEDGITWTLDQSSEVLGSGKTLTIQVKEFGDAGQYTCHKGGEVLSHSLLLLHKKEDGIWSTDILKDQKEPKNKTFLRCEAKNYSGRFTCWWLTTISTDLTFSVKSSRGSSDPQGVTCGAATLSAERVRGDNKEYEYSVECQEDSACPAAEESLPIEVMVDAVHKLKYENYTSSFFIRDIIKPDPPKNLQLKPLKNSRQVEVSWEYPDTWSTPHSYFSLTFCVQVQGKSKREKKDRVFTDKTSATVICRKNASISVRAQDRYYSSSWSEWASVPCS
- Sequence (P29459 23-219, form in doubt, chain 2 of 2): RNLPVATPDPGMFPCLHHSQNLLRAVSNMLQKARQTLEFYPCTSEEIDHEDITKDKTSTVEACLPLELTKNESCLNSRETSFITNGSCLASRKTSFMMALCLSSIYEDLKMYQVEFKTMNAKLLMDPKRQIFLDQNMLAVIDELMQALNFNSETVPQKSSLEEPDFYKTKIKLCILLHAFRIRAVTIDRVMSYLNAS
- procedure-text: SPR (Biacore 3000), mAb captured via goat anti-mouse IgG Fc, human IL-12 p70 in solution
outcome-measure: kon (M⁻¹ s⁻¹)
# number only, unit M⁻¹ s⁻¹ dropped from output

>  <binder>
7G3 (antibody, V domains shown) VH: EVQLQQSGAEFVRSGASVKLSCTASGLNIKDYYIHWVKQRPEQVLDWIGWIDPENGYSEYAPRFQDKATMTADTSSNTAYLHLSSLTSEDTAVYYCNPGELARYFDYWGQGTTLTVSS VL: DIVLSQSPATLSVTPGDSVSLSCRASQSISKNLHWYQQKSHESPRLLIKYTSQSISGIPSRFSGSGSGTDFTLSINSVETEDFGMYFCQQSISWPLTFGAGTKLELKR

>  <kon, M⁻¹ s⁻¹>
1.1e+06

$$$$
>  <binder>
1H6 (antibody, V domains shown) VH: EVKLVESGGGLVQPGGSRKLSCAASGFTFSDYGMVWVRQAPGKGLEWVAYISSGSSTIHYADTMKGRFTISRDNPKNTLFLQMSSLRSEDTAMYYCARRHYYAMDYWGQGTSVTVSS VL: SFVMTQTPKFLLVSAGDRVTITCKASQSVSNDVAWYQQKPGQSPKLLIYYASNRYTGVPDRFTGTGYGTDFTFTISTVQAEDLAVYFCQQDYTSPFTFGSGTKLEIKR

>  <kon, M⁻¹ s⁻¹>
430000

$$$$

# next binder below
Task: # kon lookup, item 5E8 (antibody, V domains shown) VH: QIQLVQSGPELKKPGETVKISCKASGYSFTDYSMHWVKQAPGKGLKWMDWINTETGEPTYADDFKGRFAFSLETSASTAYLQINNLKNEDTATYFCSRRRYRAFDYWGQGTTLTVSS VL: SIVMTQSPKFLLVSAGDRVTITCKASQSVSNDVAWYQQKLGQSPKLLIYYASNRYTGVPDRFTGSGYGTDFTFTINTVQAEDLAVYFCQQDYTSPYTFGGGTKLEIQR
Output: 570000
